src = PubChem BioAssay

- Assay Protocol: antimalarial activity against Dd2 strain (AID 2302);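 also: 0% = DMSO untreated growth and 100% = chloroquine plus artemisinin killed control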
- Stated Conditions: P. falciparum Dd2 in RBCs, LDH growth readout, 72 h; at 2 µM; active compounds read high
Decide by growth inhibition: equal to or exceeding 80% means satisfied, less means not satisfied.

# example entries with known answers
compound=Cc1ccc(O)c(-c2cc(C(=O)Nc3ccc(S(=O)(=O)N4CCCCC4)cc3)[nH]n2)c1 class_label=satisfied
compound=O=C(c1cc(-c2ccccc2O)on1)N1CCN(C(c2ccccc2)c2ccccc2)CC1 class_label=satisfied
compound=FC(F)(F)c1ccc2nc(-c3cccc(-c4cccc(CNCc5cnn(-c6ccccc6)n5)c4)c3)[nH]c2c1 class_label="not satisfied"

Hello, I need to know if `N=C(N)c1ccc(Nc2nccc(Nc3nc(-c4ccccc4)cs3)n2)cc1` has measured growth inhibition not below 80%. Thanks!
not satisfied

###

- Assay Protocol: sensitizers of A549 cells to miR-34 induction, primary screen, imaging, A549 dox-inducible miR-34, nuclei and caspase counts (AID 1347080)
- Stated Conditions: A549 miR-34 inducible, Hoechst nuclei count, 48 h; active compounds read low; cell number ratio, induced over uninduced
Each entry below carries its recorded fold change.
Respond numerically, and do not add a unit to the figure.

Below are worked cases with known answers.
compound=CON=C(C(=O)N[C@@H]1C(=O)N2C(C(=O)O)=C(COC(N)=O)CS[C@H]12)c1ccco1 metric="fold change" val=0.935
compound=c1ccc(-c2ccccn2)nc1 metric="fold change" val=0.97
compound="C#C[C@]1(O)CCC2C3CCC4=CC(=O)CC[C@@H]4C3CC[C@@]21CC (stereo not given in full)" metric="fold change" val=0.867
compound=CCCC[C@@H](CC)COC(=O)C(C#N)=C(c1ccccc1)c1ccccc1 metric="fold change" val=0.897
compound=N[C@@H]1[C@@H](O)[C@H](O)[C@@H](CO)O[C@H]1O metric="fold change" val=0.914

Fill in the blank: the reported fold change of CO[C@@]12[C@@H]3NC3CN1C1=C(C(=O)C(N)=C(C)C1=O)[C@@H]2COC(N)=O (stereo not given in full) is ____.
0.986

Fill in the blank: the reported fold change of `CNCC[C@@H](Oc1ccccc1)c1ccccc1` is ____.
0.971

Fill in the blank: the reported fold change of C[C@]12C=CC(=O)C=C1CCC1C2[C@@H](O)C[C@@]2(C)C1CC[C@]2(O)C(=O)CO (stereo not given in full) is ____.
0.848

Fill in the blank: the reported fold change of CCC1(C)OC(=O)N(C)C1=O (stereo not given) is ____.
0.92

Fill in the blank: the reported fold change of `O=C1C(Cl)=C(NCCN2CCOCC2)C(=O)c2ncccc21` is ____.
0.881

###

- Tested Target: Calcium-dependent protein kinase 1 (Plasmodium falciparum (isolate 3D7))
- Assay Protocol: PfCDPK1 kinase inhibitors, biochemical, TCAMS library (AID 1159585);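 also: inhibitors leave more ATP so luminescence rises with inhibition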
- Stated Conditions: recombinant PfCDPK1, Kinase-Glo ATP depletion luminescence
Results with a measured potency or affinity are listed apart. Activity calls are given as the source filed them. Cut-off not given; nearly all actives show IC50 up to about 0.98 µM.
Metric: outcome

Below are worked cases with known answers.
compound=COc1ccc(CN2CCC(CNCCc3c(Cl)cccc3Cl)CC2)cc1 val=inactive
compound=Fc1ccc2c(NN=CC=Cc3ccccc3)ccnc2c1 val=inactive
compound=Cc1cccc2[nH]c(-c3ccc(-c4ccc(NC(=O)NCc5ccc(F)cc5)cc4)cc3)nc12 val=inactive
compound=CCOC(=O)C(C)(C)Oc1ccc(CN(Cc2ccc(CC(C)C)cc2)C(=O)Nc2ccc(F)cc2F)c(OC)c1 val=inactive
compound=N#Cc1cc(N(CCCOc2cccc(OC(F)(F)F)c2)Cc2ccccc2C(F)(F)F)ccc1C(F)(F)F val=inactive

What reported outcome corresponds to `Cc1[nH]c(C)c(-c2ccc(Oc3cccc(OC(F)(F)F)c3)cc2)c(=O)c1Cl` on Calcium-dependent protein kinase 1 (Plasmodium falciparum (isolate 3D7))?
inactive

What reported outcome corresponds to Nc1nc(N)c2c(ccc3c2ccn3CCCC2CCCNC2)n1 (stereo not given) on Calcium-dependent protein kinase 1 (Plasmodium falciparum (isolate 3D7))?
inactive

What reported outcome corresponds to `O=[N+]([O-])c1cccc(CNC2CCN(Cc3ccc(-c4ccccc4)cc3)CC2)c1` on Calcium-dependent protein kinase 1 (Plasmodium falciparum (isolate 3D7))?
inactive

What reported outcome corresponds to `Cc1cccc(-c2cc3cc(Nc4ccnc5cc(-c6nccs6)ccc45)ccc3[nH]2)c1` on Calcium-dependent protein kinase 1 (Plasmodium falciparum (isolate 3D7))?
inactive

What reported outcome corresponds to CCNc1cc(C(=O)N[C@@H](Cc2ccccc2)[C@H](O)CNC(C)CCCC(C)C)cc(N2CCCS2(=O)=O)c1 (stereo not given in full) on Calcium-dependent protein kinase 1 (Plasmodium falciparum (isolate 3D7))?
inactive
